- Test system: CFTR-Y122X
- Assay Name: CFTR-Y122X assay (dual reporter isogenic Hek293 cell lines, Renilla luminescence readthrough)
- Assay type: cell-based
- Assay Conditions: Homo sapiens, HEK293, 24 h, nonsense mutation suppression; 24 h incubation; tested up to 100 μM
Recorded measurements of log10 of AC50, one per entry
Quick note: numbers are log10 of AC50, with µM as the unit.

// known answers, use as guide
Cn1c2cc(Cl)sc2c(=O)c2c(=O)n(-c3ccccc3)c(C3CCC3)nc21 [Example 2.17] = 0.60
Cc1cc2c(=O)c3c(=O)n(-c4ccccc4)c(C4CCC4)nc3n(C)c2s1 [Example 2.9] = 0.34
Cc1c(C)n(C)c2nc(C(C)C)n(-c3ccccc3)c(=O)c2c1=O [Example 3.7] = 1.34
CC(C)c1nc2c(c(=O)c3c(n2C)CCCCC3)c(=O)n1-c1ccccc1 [Example 3.2] = 1.04
CC(C)c1nc2c(c(=O)c3cc(Cl)sc3n2C)c(=O)n1-c1ccccc1 [Example 2.19] = 1.18

## Input So what does the record say about log10 of AC50 for CC1CCc2c(n(C)c3nc(C(C)C)n(-c4ccccc4)c(=O)c3c2=O)C1 (stereo not drawn) [Example 3.9] ?
## Output 1.04

## Input So what does the record say about log10 of AC50 for CC(C)c1nc2[nH]c3sccc3c(=O)c2c(=O)n1-c1ccccc1 [Example 2.6] ?
## Output 1.20

## Input So what does the record say about log10 of AC50 for Cc1cc2[nH]c3nc(C(C)C)n(-c4ccccc4)c(=O)c3c(=O)c2s1 [Example 2.8] ?
## Output 0.90

## Input So what does the record say about log10 of AC50 for CC(C)c1nc2[nH]c3ccsc3c(=O)c2c(=O)n1-c1ccccc1 [Example 2.7] ?
## Output 0.84

## Input So what does the record say about log10 of AC50 for Cc1csc2c(=O)c3c(=O)n(-c4ccccc4)c(C(C)C)nc3[nH]c12 [Example 2.21] ?
## Output 1.15

## Input So what does the record say about log10 of AC50 for CC(C)c1nc2[nH]c3cscc3c(=O)c2c(=O)n1-c1ccccc1 [Example 2.5] ?
## Output 1.36

## Input So what does the record say about log10 of AC50 for Cn1c2nc(C3CCC3)n(-c3ccccc3)c(=O)c2c(=O)c2cc(Cl)sc21 [Example 2.18] ?
## Output 0.52

## Input So what does the record say about log10 of AC50 for Cc1[nH]c2nc(C3CCC3)n(-c3ccccc3)c(=O)c2c(=O)c1C [Example 3.12] ?
## Output 0.69

## Input So what does the record say about log10 of AC50 for Cc1cc2c(s1)c(=O)c1c(=O)n(-c3ccccc3)c(C(C)C)nc1n2C [Example 2.3] ?
## Output 1.15

## Input So what does the record say about log10 of AC50 for Cc1c(C)n(C)c2nc(C3CCC3)n(-c3ccccc3)c(=O)c2c1=O [Example 3.13] ?
## Output 0.96

## Input So what does the record say about log10 of AC50 for CC(C)c1nc2[nH]c3c(c(=O)c2c(=O)n1-c1ccccc1)CCCCC3 [Example 3.1] ?
## Output 1.11

## Input So what does the record say about log10 of AC50 for CC(C)c1nc2[nH]c3c(c(=O)c2c(=O)n1-c1ccccc1)CCC3 [Example 3.3] ?
## Output 1.32

## Input So what does the record say about log10 of AC50 for CC1CCc2[nH]c3nc(C(C)C)n(-c4ccccc4)c(=O)c3c(=O)c2C1 (stereo not drawn) [Example 3.8] ?
## Output 1.08
